biological target: UniProt P18825; experiment: Determination of alpha2C antagonistic activity in vitro (FLIPR calcium assay); conditions: Alpha 2C Adrenaline Kb, Kb calculated from IC50 with the Cheng-Prusoff equation; adrenaline as agonist; CHO cells, human alpha2C
Sequence (P18825 whole entry): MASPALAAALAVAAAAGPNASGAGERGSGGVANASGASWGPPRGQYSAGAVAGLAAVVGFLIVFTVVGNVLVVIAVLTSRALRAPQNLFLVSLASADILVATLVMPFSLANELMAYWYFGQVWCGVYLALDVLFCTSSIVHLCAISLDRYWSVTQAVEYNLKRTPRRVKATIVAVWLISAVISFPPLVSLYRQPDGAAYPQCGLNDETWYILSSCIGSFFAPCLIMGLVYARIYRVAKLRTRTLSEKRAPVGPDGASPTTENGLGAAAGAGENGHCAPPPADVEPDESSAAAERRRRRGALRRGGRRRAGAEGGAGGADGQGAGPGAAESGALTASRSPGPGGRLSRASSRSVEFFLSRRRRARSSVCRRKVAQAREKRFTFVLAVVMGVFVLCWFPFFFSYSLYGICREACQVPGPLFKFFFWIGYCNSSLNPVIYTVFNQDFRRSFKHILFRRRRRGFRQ
metric: Kb (nM)

{"compound": "CC1CCC(=O)N1[C@H]1CCCN(C[C@H]2COc3ccccc3O2)C1 (some centres unmarked)", "metric": "Kb", "valueMeasured": 0.11}

a = O=C1c2cnccc2CN1[C@H]1CCCN(C[C@H]2COc3ccccc3O2)C1
b = CC(C)CN1CC(=O)N([C@H]2CCCN(C[C@H]3COc4ccccc4O3)C2)C1=O
c = CN1CCCN([C@H]2CCCN(C[C@H]3COc4ccccc4O3)C2)C1=O
d = CN1CC(=O)N([C@H]2CCCN(C[C@H]3COc4ccccc4O3)C2)C1=O
e = O=C1CN(CC2CC2)C(=O)N1[C@H]1CCCN(C[C@H]2COc3ccccc3O2)C1
List these items ordered by Kb, big to small. Response format: the labels, sorted as the prompt asks. a, c, d, e, b
(a: 12.8 nM, c: 0.5 nM, d: 0.32 nM, e: 0.13 nM, b: 0.029 nM)

// provenance: patent US20190152992A1
